Test: qHTS Validation assay for Inhibitors of Plasmodium falciparum Dd2 growth in vitro; further: nearly all actives have a fitted effect of over 70% in size
Conditions: P. falciparum Dd2 in RBCs, SYBR Green growth, 72 h; series mostly up to 28.7 µM
Among all 4,100 compounds or so, about 1,600 (39%) were called active. Inconclusive results (about 25%) are left out. The call rests on the fitted dose curve; in most records, active means well fitted inhibition curve with a large enough effect; inconclusive means small, poorly fitted or top-dose-only effect; inactive means no such curve, though single readings can be large or run the other way. This is one part of the list.
Respond only with the outcome that fits, drawn from T for active, F for inactive

Q) How did this test come out for `CCCc1cc(=O)oc2cc(C)cc(OCC(=O)NC3CC3)c12` ?
A) T

Q) How did this test come out for `COc1cccc(NC(=O)c2ccc(NCCCN3CCC(C)CC3)c([N+](=O)[O-])c2)c1` ?
A) T

Q) How did this test come out for `CCn1ncc(N2CCC(NC(=O)COc3ccc(F)cc3)CC2)cc1=O` ?
A) F

Q) How did this test come out for `Cc1ccc(C)c(OCC(=O)Nc2cc(C(=O)O)cc(C(=O)O)c2)c1` ?
A) F

Q) How did this test come out for CCOc1ccccc1C(=O)Nc1nc2c(s1)CC(C)CC2 (stereo unspecified) ?
A) F

Q) How did this test come out for `Cc1cccnc1NC(=O)COc1ccc2oc3c(c2c1)CCCC3` ?
A) F

---

Assay: qHTS Validation assay for Inhibitors of Plasmodium falciparum Dd2 growth in vitro; further: nearly all actives have a fitted effect of over 70% in size
Details: P. falciparum Dd2 in RBCs, SYBR Green growth, 72 h; series mostly up to 28.7 µM
Hit rate of the full screen: of about 4,100 compounds, about 1,600 (39%) were called active. Another 25% or so got no clear call; they are omitted. The call rests on the fitted dose curve; in most records, active means well fitted inhibition curve with a large enough effect; inconclusive means small, poorly fitted or top-dose-only effect; inactive means no such curve, though single readings can be large or run the other way. The list shows a part of the results.
Respond only with the outcome that fits, drawn from Y = active, N = inactive

Take a look at these entries with their results.
Q) How did this test come out for COc1cccc(CN2CCC(N3CC(OCC4CC4)C34CCCCC4)CC2)n1 (stereo unspecified) ?
A) Y

Q) How did this test come out for Cn1cccc1CN1CCC(N2CC(OCC3CC3)C23CCCCC3)CC1 (stereo unspecified) ?
A) Y

Q) How did this test come out for `N#CC1CCN(C(=O)c2nc(-c3cccc(C(F)(F)F)c3)c3cnccn23)CC1` ?
A) Y

Q) How did this test come out for `CC(C)CNC(=O)C(C)(C)Oc1nn(CC2CC2)c2ccc(CN3CCCC3)cc12` ?
A) Y

More entries:
Q) How did this test come out for `COCc1nc2nc(-c3ccccc3)c(Nc3ccc(F)cc3)cc2n1C` ?
A) N

Q) How did this test come out for `O=C(Nc1ccc2c(c1)C(=O)N1CCC[C@H]1C(=O)N2)c1cc(-c2ccccc2)n[nH]1` ?
A) N

Q) How did this test come out for `O=C(NCCc1nc(-c2cccnc2)no1)c1coc2c1C(=O)CCC2` ?
A) N

Q) How did this test come out for `COc1ccc(CNC(=O)CCc2c(C)nn(-c3ccc(N4CCOCC4)nn3)c2C)cc1` ?
A) N

Q) How did this test come out for NCCn1cc(C(=O)N2CCCC(c3[nH]ncc3Cc3ccccc3)C2)nn1 (stereo unspecified) ?
A) N

---

Experiment: qHTS Validation assay for Inhibitors of Plasmodium falciparum Dd2 growth in vitro; further: nearly all actives have a fitted effect of over 70% in size
Conditions: P. falciparum Dd2 in RBCs, SYBR Green growth, 72 h; series mostly up to 28.7 µM
Among all 4,100 compounds or so, about 1,600 (39%) were called active. About 25% were inconclusive and are not listed. The call rests on the fitted dose curve; in most records, active means well fitted inhibition curve with a large enough effect; inconclusive means small, poorly fitted or top-dose-only effect; inactive means no such curve, though single readings can be large or run the other way. Some of the results follow.
Respond only with the outcome that fits, drawn from yes for active, no for inactive

Take a look at these entries with their results.
Q) How did this test come out for `COc1ccc2nc(C)cc(NCc3cccc(C(F)(F)F)c3)c2c1` ?
A) yes

Q) How did this test come out for `Cc1ccsc1C(=O)N1CCC(n2cc(-c3nc(C(C)C)no3)nn2)CC1` ?
A) no

Q) How did this test come out for `Cc1ccc(C(=O)N2CCCCCCNC(=O)[C@@H]3CCC[C@@H]32)s1` ?
A) no

More entries:
Q) How did this test come out for `CCc1nc(NCc2cn[nH]c2-c2ccc(Cl)cc2)c2cnn(C)c2n1` ?
A) no

Q) How did this test come out for `Cc1cccc(Cn2nnc3c2C(=O)c2ccccc2C3=O)c1` ?
A) no

Q) How did this test come out for Cc1ccc(CNC(=O)N2CCCCCNC(=O)CC2c2ccccc2)cc1 (configuration not stated) ?
A) no

Q) How did this test come out for `CSc1cccc(Nc2nc3c(S(=O)(=O)c4ccccc4)nnn3c3ccc(Cl)cc23)c1` ?
A) yes

Q) How did this test come out for COc1cccc(CN2CCCN(Cc3ccncc3)C(c3ccccc3)CC(=O)NCC2)c1 (configuration not stated) ?
A) yes

Q) How did this test come out for `Cc1ccc2nc(C)cc(Nc3ccc([N+](=O)[O-])cc3)c2c1` ?
A) yes

Q) How did this test come out for O=C(CCC1CCCC1)N1CC(c2nnc(-c3ccncc3)o2)C2(CCOCC2)C1 (configuration not stated) ?
A) no
